- TARGET DESC: hGcgR (Homo sapiens)
- Sequence (P47871 26-477): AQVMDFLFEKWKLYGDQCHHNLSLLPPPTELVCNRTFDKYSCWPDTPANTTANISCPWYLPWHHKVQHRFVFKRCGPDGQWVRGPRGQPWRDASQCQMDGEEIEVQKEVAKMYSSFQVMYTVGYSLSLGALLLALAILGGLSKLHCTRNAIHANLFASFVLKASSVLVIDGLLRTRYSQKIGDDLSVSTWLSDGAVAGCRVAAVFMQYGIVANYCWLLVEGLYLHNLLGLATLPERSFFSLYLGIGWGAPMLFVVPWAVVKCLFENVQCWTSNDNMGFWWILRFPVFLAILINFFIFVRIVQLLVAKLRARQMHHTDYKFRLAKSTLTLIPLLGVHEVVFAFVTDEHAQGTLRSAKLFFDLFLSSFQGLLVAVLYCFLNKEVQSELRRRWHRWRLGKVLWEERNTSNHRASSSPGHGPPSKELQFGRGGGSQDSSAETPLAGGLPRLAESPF
- ASSAY TEXT: Functional cAMP activation in the presence of 0.1% casein (no HSA);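 also: intracellular cAMP rise after 30 min at 37 °C, read by HTRF against a cAMP standard curve, scaled from buffer only (0%) to maximal control ligand response (100%)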
- Assay type: cell-based
- RUN CONDITIONS: in the presence of 0.1% casein (no HSA); geometric mean; read-out: Relative cAMP EC50, hGcgR
Starred links: 1 amine or outer side, 2 acyl side, 3 side chain; linkers in the order of their positions; H or OH if unused. Non-standard residues stand in square brackets, D forms with d. Groups on a side chain read outwards from the residue. *: point of attachment. C20 diacid = O=C(O)CCCCCCCCCCCCCCCCCCC(=O)*; C18 diacid = O=C(O)CCCCCCCCCCCCCCCCC(=O)*; αMePhe(2-F) = C[C@](N)(Cc1ccccc1F)C(=O)O; γGlu = O=C(O)[C@H](CCC(=O)[*:2])N[*:1]; αMeL = CC(C)C[C@](C)(N)C(=O)O; Orn = NCCC[C@H](N)C(=O)O; AEEA = NCCOCCOCC(=O)O; Aib = CC(C)(N)C(=O)O
QUANTITY NAME: pEC50
Reminder that pEC50 is minus the log10 of a molar concentration.

Sample answers from the record:
H-Y[Aib]QGT[αMePhe(2-F)]TSDYSKLLDKIAQK([AEEA-γGlu-C20 diacid])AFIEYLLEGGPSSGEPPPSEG-NH2 [Example 295]    8.67
H-Y[Aib]QGTFTSDFS[Orn][αMeL]LDKK([AEEA-AEEA-γGlu-C18 diacid])AQ[Aib]AFIEYLLE[dA]GPSSGEPPPSGE-NH2 [Example 117]    8.32

Next up:
So, H-Y[Aib]QGTFTSDFS[Orn][αMeL]LDKK([AEEA-γGlu-C18 diacid])AQ[Aib]AFIEYLLE[Aib]GPSSGAPPPSGT-NH2 [Example 200] ? Its pEC50 was 8.55
